Molecular target: Human IP6K1 (Homo sapiens)
Construct: GST (N, cleaved yes); made in house; host or cells: C43 E. coli, pGEX-6P-2
Sequence (Q92551 whole entry): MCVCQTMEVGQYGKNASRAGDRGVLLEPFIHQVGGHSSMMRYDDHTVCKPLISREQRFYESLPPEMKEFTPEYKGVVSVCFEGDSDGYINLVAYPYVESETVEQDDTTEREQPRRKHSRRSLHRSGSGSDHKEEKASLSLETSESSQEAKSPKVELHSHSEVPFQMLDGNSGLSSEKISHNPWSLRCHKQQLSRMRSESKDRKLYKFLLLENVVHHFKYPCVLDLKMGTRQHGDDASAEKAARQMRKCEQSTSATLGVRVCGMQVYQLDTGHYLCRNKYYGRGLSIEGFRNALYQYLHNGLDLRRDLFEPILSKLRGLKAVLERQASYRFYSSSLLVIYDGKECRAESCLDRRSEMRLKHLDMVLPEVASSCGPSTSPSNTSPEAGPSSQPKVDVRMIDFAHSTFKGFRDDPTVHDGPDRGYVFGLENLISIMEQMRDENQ
Assay: IP6K1 high-throughput screen of the Sigma LOPAC (ADP-Glo Max, single point);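 also: final compound concentration 10µM in 5% DMSO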
Assay type: biochemical
Conditions: LOPAC single-point screen, ADP-Glo Max luminescence raw signal per well
result type: Raw Signal
Reply with just the number.

{"compound": "Oc1ccc(Cn2cc[nH]c2=S)cc1 [1-(4-Hydroxybenzyl)imidazole-2-thiol]", "Raw Signal": 52381}
{"compound": "Cc1ccc(O)c(N=Nc2ccccc2)n1 [SIB 1757]", "Raw Signal": 46352}

Query string: So what's the measured Raw Signal for this one? CCCCCCCC/C=C\CCCCCCCC(=O)NCCc1ccc(O)c(O)c1 [N-Oleoyldopamine]
Result string: 53486

Query string: So what's the measured Raw Signal for this one? C[C@]12CCC(=O)C(O)=C1CC[C@@H]1[C@@H]2CC[C@]2(C)C(=O)CC[C@@H]12 [4-Androsten-4-ol-3,17-dione]
Result string: 53811

Query string: So what's the measured Raw Signal for this one? CSc1ccc(C(=O)c2[nH]c(=O)[nH]c2C)cc1 [Enoximone]
Result string: 64614

Query string: So what's the measured Raw Signal for this one? Br.CCCN1CCc2cc(O)cc3c2[C@H]1Cc1ccc(O)c(O)c1-3
Result string: 52120
